The measurements presented in this section are drawn from patent US20220289686A1.

- System: NRF2 activity in H1299-NQO1-YFP cells
- procedureSummary: NRF2 activity reporter IC50 in H1299-NQO1-YFP cells vs NRF2 pathway activators (IncuCyte, YFP/mCherry)
- Assay type: cell-based
- protocolConditions: Table 1; activator SULF 2 μM; H1299-NQO1-YFP cells; read-out: SULF 2 μM IC50 μM ± SEM
- Method: Readings were taken every 2 hours for at least 24 hours. […] Readings were also taken every 2 hours for 96 hours in and IncuCyte S3. YFP total intensity (correlating to NRF2 activity) was normalized to NLS-mCherry (cell number) total intensity to give a ratio (YFP/mCherry). Ratios at one time point at least 24 hours post compounds were added were used. These numbers were then plotted in Graphpad Prism to calculate IC50s. […]
assayMetric: log10 of IC50 (log10 of the value in µM)
Form field - Quantity: IC50; Unit: µM; Scale: log10

For orientation, consider the following solved cases.
[
  {
    "molecule": "CCc1nc(N)nc(N)c1-c1ccc(C(C)(F)F)cc1",
    "systemUnderTest": "NRF2 activity in H1299-NQO1-YFP cells",
    "log10 of IC50": 0.52
  },
  {
    "molecule": "Nc1ncc(-c2ccc(Cl)cc2)c(N)n1",
    "systemUnderTest": "NRF2 activity in H1299-NQO1-YFP cells",
    "log10 of IC50": 1.10
  },
  {
    "molecule": "CCC1=NC(N)=NC(=O)C1c1ccc(Cl)cc1 (stereo not shown)",
    "systemUnderTest": "NRF2 activity in H1299-NQO1-YFP cells",
    "log10 of IC50": 1.04
  },
  {
    "molecule": "CCc1nc(N)nc(N)c1-c1ccccc1",
    "systemUnderTest": "NRF2 activity in H1299-NQO1-YFP cells",
    "log10 of IC50": -0.04
  },
  {
    "molecule": "C=CCCc1nc(N)nc(N)c1-c1cccc(C(F)(F)F)c1",
    "systemUnderTest": "NRF2 activity in H1299-NQO1-YFP cells",
    "log10 of IC50": -1.01
  }
]

Entry CCc1nc(N)nc(N)c1-c1cccc(Cl)c1 , log10 of IC50 reported as -0.89

Entry COCCOCCc1nc(N)nc(N)c1-c1cccc(Cl)c1 , log10 of IC50 reported as -0.40

Entry CCc1nc(N)nc(N)c1-c1ccc2c(c1)CCC2 , log10 of IC50 reported as -0.25

Entry C#CCCCc1nc(N)nc(N)c1-c1cccc(Cl)c1 , log10 of IC50 reported as -0.79

Entry Nc1nc(N)c(-c2cccc(Cl)c2)c(CC2CCC2)n1 , log10 of IC50 reported as -0.34

###

- System: NRF2 protein
- procedureSummary: Western blot analysis of NRF2 protein abundance and downstream targets in cell lines
- Type: cell-based
- protocolConditions: western blot; 24-48 hours; PYR 10 μM, analogs 1 μM (104 in HEK293T 10 μM), MTX and PEM 0.1 μM, CG 10 μM
assayMetric: NRF2 protein abundance

[
  {
    "molecule": "CC1(C)N=C(N)N=C(N)N1c1ccc(Cl)cc1 [CG, reference compound]",
    "assayMetric": "NRF2 protein abundance",
    "result": "decreased"
  },
  {
    "molecule": "CN(Cc1cnc2nc(N)nc(N)c2n1)c1ccc(C(=O)N[C@@H](CCC(=O)O)C(=O)O)cc1 [MTX, Methotrexate, reference compound]",
    "assayMetric": "NRF2 protein abundance",
    "result": "decreased"
  }
]

###

- System: NRF2 activity in H1299-NQO1-YFP cells
- procedureSummary: NRF2 activity reporter IC50 in H1299-NQO1-YFP cells vs NRF2 pathway activators (IncuCyte, YFP/mCherry)
- Assay type: cell-based
- protocolConditions: read-out: PRL295 5 μM IC50 AM ± SEM, Table 1; activator PRL295 5 μM; H1299-NQO1-YFP cells
- Procedure: Readings were taken every 2 hours for at least 24 hours. […] Readings were also taken every 2 hours for 96 hours in and IncuCyte S3. YFP total intensity (correlating to NRF2 activity) was normalized to NLS-mCherry (cell number) total intensity to give a ratio (YFP/mCherry). Ratios at one time point at least 24 hours post compounds were added were used. These numbers were then plotted in Graphpad Prism to calculate IC50s. […]
In this section we review reported IC50 values for a set of molecules.

For orientation, consider the following solved cases.
[
  {
    "molecule": "CCc1nc(N)nc(N)c1-c1ccc(C(C)(F)F)cc1",
    "IC50": "3740 nM"
  },
  {
    "molecule": "CCc1nc(N)nc(N)c1-c1ccc2c(c1)CCC2",
    "IC50": "552 nM"
  },
  {
    "molecule": "Nc1nc(N)c(-c2cccc(Cl)c2)c(CC2CCC2)n1",
    "IC50": "444 nM"
  },
  {
    "molecule": "Nc1ncc(-c2ccc(Cl)cc2)c(N)n1",
    "IC50": "9990 nM"
  },
  {
    "molecule": "Nc1nc(N)c(-c2cccc(C(F)(F)F)c2)c(CCCNC(=O)CCCC[C@H]2SCC3NC(O)NC32)n1 (some centres unmarked)",
    "IC50": "4840 nM"
  }
]

Entry Nc1ncc(-c2cccc(Cl)c2)c(N)n1 , IC50 reported as 1840 nM

Entry CCc1nc(N)nc(N)c1-c1ccc(Cl)cc1 [PYR, reference compound] , IC50 reported as 873 nM

Entry CCc1nc(N)nc(N)c1-c1cccc(Cl)c1 , IC50 reported as 61 nM

Entry COCCOCCc1nc(N)nc(N)c1-c1cccc(Cl)c1 , IC50 reported as 683 nM

Entry CCc1nc(N)nc(N)c1-c1ccccc1 , IC50 reported as 1510 nM

###

- System: NRF2 activity in H1299-NQO1-YFP cells
- procedureSummary: NRF2 activity reporter IC50 in H1299-NQO1-YFP cells vs NRF2 pathway activators (IncuCyte, YFP/mCherry)
- Format: cell-based
- protocolConditions: Table 6 NRF2 inhibitors; read-out: Avg IC50
In this section we review reported IC50 values for a set of compounds.

For orientation, consider the following solved cases.
[
  {
    "compound": "CCc1nc(N)nc(N)c1-c1cccc(Cl)c1F",
    "result": "> 5000 nM"
  },
  {
    "compound": "Nc1ncc(-c2ccc(Cl)cc2)c(N)n1",
    "result": "13100 nM"
  },
  {
    "compound": "CCc1nc(N)nc(N)c1-c1cccc(C(F)(F)F)c1",
    "result": "57 nM"
  },
  {
    "compound": "CCc1nc(N)nc(N)c1-c1ccc(N2CC3CC3C2)cc1 (stereo not shown)",
    "result": "> 20000 nM"
  },
  {
    "compound": "CCc1nc(N)nc(N)c1-c1ccc(S(=O)(=O)N2CC3(COC3)C2)cc1",
    "result": "> 20000 nM"
  }
]

In the following, a different compound is considered.
Entry CCc1nc(N)nc(N)c1-c1cccc(Cl)c1 , IC50 reported as 98 nM

###

In this section we review reported IC50 values for a set of compounds.
- Test system: NRF2 activity in H1299-NQO1-YFP cells
- procedureSummary: NRF2 activity reporter IC50 in H1299-NQO1-YFP cells vs NRF2 pathway activators (IncuCyte, YFP/mCherry)
- Format: cell-based
- protocolConditions: Table 1; activator SULF 2 μM; H1299-NQO1-YFP cells; read-out: SULF 2 μM IC50 μM ± SEM
# value in µM; strip the unit string

[
  {
    "compound": "Nc1ncc(-c2cccc(Cl)c2)c(N)n1",
    "unitSpec": "µM",
    "IC50": 1.88
  },
  {
    "compound": "CCc1nc(N)nc(N)c1-c1ccc(S(=O)(=O)C2CC3CC3C2)cc1 (stereo not shown)",
    "unitSpec": "µM",
    "IC50": 12.6
  },
  {
    "compound": "CCc1nc(N)nc(N)c1-c1cccc(C(F)(F)F)c1",
    "unitSpec": "µM",
    "IC50": 0.057
  }
]

In the following, a different compound is considered.
Entry CCc1nc(N)nc(N)c1-c1cc(Cl)cc(Cl)c1 , IC50 reported as 0.111

###

- System: NRF2 activity in H1299-NQO1-YFP cells
- procedureSummary: NRF2 activity reporter IC50 in H1299-NQO1-YFP cells vs NRF2 pathway activators (IncuCyte, YFP/mCherry)
- Assay type: cell-based
- protocolConditions: read-out: PRL295 5 μM IC50 μM ± SEM; Table 3; activator PRL295 5 μM; H1299-NQO1-YFP cells
assayMetric: IC50 (µM)
# value in µM; strip the unit string

[
  {
    "molecule": "Nc1nc2[nH]cc(CCc3ccc(C(=O)N[C@@H](CCC(=O)O)C(=O)O)cc3)c2c(=O)[nH]1 [PEM, reference compound]",
    "unitSpec": "µM",
    "IC50": 0.112
  },
  {
    "molecule": "CCc1nc(N)nc(N)c1-c1ccc(Cl)cc1 [PYR, reference compound]",
    "unitSpec": "µM",
    "IC50": 0.873
  },
  {
    "molecule": "CC1(C)N=C(N)N=C(N)N1c1ccc(Cl)cc1 [CG, reference compound]",
    "unitSpec": "µM",
    "IC50": 1.57
  }
]

In the following, a different molecule is considered.
Entry CN(Cc1cnc2nc(N)nc(N)c2n1)c1ccc(C(=O)N[C@@H](CCC(=O)O)C(=O)O)cc1 [MTX, Methotrexate, reference compound] , IC50 reported as 0.024
